# assaySystem: rat B1R (bradykinin receptor 1) (Rattus norvegicus)
# Construct: expressed in transfected cells; host or cells: CHO K1 cells
# Sequence (P97583 whole entry): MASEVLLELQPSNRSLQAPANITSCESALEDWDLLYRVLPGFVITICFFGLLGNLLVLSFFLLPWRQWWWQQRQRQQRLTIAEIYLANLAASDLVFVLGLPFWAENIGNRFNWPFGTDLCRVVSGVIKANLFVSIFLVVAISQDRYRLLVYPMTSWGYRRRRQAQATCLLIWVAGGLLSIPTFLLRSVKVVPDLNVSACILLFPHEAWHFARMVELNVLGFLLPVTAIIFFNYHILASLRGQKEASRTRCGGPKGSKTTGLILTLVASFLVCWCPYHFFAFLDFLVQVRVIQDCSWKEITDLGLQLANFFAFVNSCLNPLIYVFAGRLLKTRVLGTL
# protocol: FLIPR Ca2+ assay (Fluo-4) on CHO K1 cells stably transfected with the B1R gene of the rat (rB1R cells): % inhibition at 10 μM / IC50, agonist Des-Arg9-bradykinin
# Format: cell-based
# conditionDetails: CHO-K1, rat B1R
# Text: The agonistic or antagonistic action of substances can be quantified on the bradykinin receptor 1 (B1R) of the human and rat species with ectopically expressing cell lines (CHO K1 cells) and with the aid of a Ca^2+-sensitive dyestuff (Fluo-4) in a fluorescent imaging plate reader (FLIPR). […] The agonistic or antagonistic action of substances can be determined on the bradykinin receptor 1 (B1R) of the human and rat species with the following assay. […]
Decide by inhibition at 10 µM: equal to or exceeding 80% means condition met, less means condition not met.

Consider the following illustrative entries.
Cc1cccc(Cl)c1C(=O)NC1CCc2ccc(C(=O)N3CCC4(CCN(Cc5c(C)noc5C)CC4)C3)cc21 (centres unmarked) = condition not met
O=C(NC1CCc2ccc(C(=O)N3CCC4(CC3)CCN(c3ccncc3)C4)cc21)C(c1ccccc1)c1ccccc1Cl (centres unmarked) = condition met
O=C(N[C@@H]1CCc2ccc(C(=O)N3CCC4(CC3)CCN(c3ccncc3)CC4)cc21)c1c(Cl)cccc1Cl = condition met

Could you tell me if the measured inhibition at 10 µM of COc1ccc(C(=O)NC2CCc3ccc(C(=O)N4CCC5(CC4)CCN(c4ccc(C(F)(F)F)cc4)CC5)cc32)c(Cl)c1 (centres unmarked) reaches 80% or more?
condition not met

Could you tell me if the measured inhibition at 10 µM of Cc1noc(C)c1CN1CCC2(CC1)CCN(C(=O)c1ccc3c(c1)C(NC(=O)c1ccccc1Cl)CC3)C2 (centres unmarked) reaches 80% or more?
condition met

Could you tell me if the measured inhibition at 10 µM of O=C(NC1CCc2ccc(C(=O)N3CCC4(CC3)CCN(c3ccc(F)cc3)CC4)cc21)c1ccccc1Cl (centres unmarked) reaches 80% or more?
condition met

Could you tell me if the measured inhibition at 10 µM of O=C(c1ccc2c(c1)C(N(C(=O)c1ccccc1Cl)C1CC1)CC2)N1CCC2(CCN(Cc3ccc(F)cc3Cl)CC2)C1 (centres unmarked) reaches 80% or more?
condition not met

Could you tell me if the measured inhibition at 10 µM of CC1(C)Cc2ccc(C(=O)N3CCC4(CCN(c5ccncc5)CC4)C3)cc2C1NC(=O)c1ccccc1Cl (centres unmarked) reaches 80% or more?
condition met

Could you tell me if the measured inhibition at 10 µM of Cc1cc(N2CCC3(CCN(C(=O)c4ccc5c(c4)[C@H](NC(=O)c4ccccc4Cl)CC5)C3)CC2)ccn1 reaches 80% or more?
condition met

Could you tell me if the measured inhibition at 10 µM of O=C(c1ccc2c(c1)C(N(C(=O)c1ccccc1Cl)C1CC1)CC2)N1CCC2(CCN(Cc3cc(F)ccc3F)CC2)C1 (centres unmarked) reaches 80% or more?
condition not met
